- target_system: Insulin-like growth factor 1 receptor (Homo sapiens)
- Sequence (P08069 31-736 limits assumed): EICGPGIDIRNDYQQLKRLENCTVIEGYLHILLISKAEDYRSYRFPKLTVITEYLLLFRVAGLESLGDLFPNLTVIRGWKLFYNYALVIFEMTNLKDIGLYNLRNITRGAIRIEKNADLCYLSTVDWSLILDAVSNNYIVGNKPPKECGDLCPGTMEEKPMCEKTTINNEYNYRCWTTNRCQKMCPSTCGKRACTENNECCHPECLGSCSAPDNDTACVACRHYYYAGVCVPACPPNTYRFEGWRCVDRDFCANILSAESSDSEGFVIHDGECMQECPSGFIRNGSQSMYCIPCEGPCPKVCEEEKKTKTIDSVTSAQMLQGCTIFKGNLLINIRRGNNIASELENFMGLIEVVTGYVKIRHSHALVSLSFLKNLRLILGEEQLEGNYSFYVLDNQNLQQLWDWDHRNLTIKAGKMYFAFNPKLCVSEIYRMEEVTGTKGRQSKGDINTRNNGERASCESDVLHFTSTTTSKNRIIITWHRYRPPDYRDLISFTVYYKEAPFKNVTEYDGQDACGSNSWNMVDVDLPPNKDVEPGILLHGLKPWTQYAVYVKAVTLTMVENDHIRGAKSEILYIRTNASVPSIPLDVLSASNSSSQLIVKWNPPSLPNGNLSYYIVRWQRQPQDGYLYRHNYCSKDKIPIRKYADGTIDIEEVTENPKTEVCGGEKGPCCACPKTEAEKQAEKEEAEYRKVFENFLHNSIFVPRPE
- Sequence (P08069 741-1367 limits assumed): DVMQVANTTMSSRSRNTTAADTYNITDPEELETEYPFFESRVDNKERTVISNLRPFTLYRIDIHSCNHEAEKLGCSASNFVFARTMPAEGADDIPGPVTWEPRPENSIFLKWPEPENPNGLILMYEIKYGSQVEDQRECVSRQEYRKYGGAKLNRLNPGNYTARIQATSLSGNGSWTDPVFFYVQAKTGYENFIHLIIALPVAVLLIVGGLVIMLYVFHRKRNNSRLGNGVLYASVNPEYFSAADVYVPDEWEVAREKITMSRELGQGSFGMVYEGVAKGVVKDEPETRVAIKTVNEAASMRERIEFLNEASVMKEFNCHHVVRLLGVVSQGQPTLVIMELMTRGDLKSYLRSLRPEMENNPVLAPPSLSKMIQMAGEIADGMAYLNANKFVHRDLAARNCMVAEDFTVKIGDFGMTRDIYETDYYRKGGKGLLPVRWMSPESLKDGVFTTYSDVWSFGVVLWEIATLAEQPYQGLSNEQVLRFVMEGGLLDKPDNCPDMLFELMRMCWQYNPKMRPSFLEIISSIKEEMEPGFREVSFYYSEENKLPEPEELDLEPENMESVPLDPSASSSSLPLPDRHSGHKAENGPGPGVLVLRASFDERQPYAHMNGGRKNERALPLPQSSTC
- protocol_description: Inhibition of human recombinant IGF1 receptor
Consider the following molecules; for each one, report its pIC50.
Answer as the number alone; pIC50 is minus log10 of concentration in mol/L.

Ask: Report pIC50 under test system Insulin-like growth factor 1 receptor (Homo sapiens) for Cc1cc(-n2ccnc2)cc2[nH]c(-c3c(N[C@H](CO)Cc4ccc(F)cc4)cc[nH]c3=O)nc12 .
Reply: 5.85

Ask: Report pIC50 under test system Insulin-like growth factor 1 receptor (Homo sapiens) for Cc1cc(-n2ccnc2)cc2[nH]c(-c3c(N[C@H](CO)Cc4ccccc4OC(F)(F)F)cc[nH]c3=O)nc12 .
Reply: 5.89

Ask: Report pIC50 under test system Insulin-like growth factor 1 receptor (Homo sapiens) for Cc1cc(-n2ccnc2)cc2[nH]c(-c3c(N[C@H](CO)Cc4cccc(C(F)(F)F)c4)cc[nH]c3=O)nc12 .
Reply: 5.46

Ask: Report pIC50 under test system Insulin-like growth factor 1 receptor (Homo sapiens) for Cc1cc(-n2ccnc2)cc2[nH]c(-c3c(N[C@H](CO)Cc4cccc(Cl)c4)cc[nH]c3=O)nc12 .
Reply: 6.14

Ask: Report pIC50 under test system Insulin-like growth factor 1 receptor (Homo sapiens) for Cc1cc(-n2ccnc2)cc2[nH]c(-c3c(N[C@H](CO)Cc4cccc([N+](=O)[O-])c4)cc[nH]c3=O)nc12 .
Reply: 5.48

Ask: Report pIC50 under test system Insulin-like growth factor 1 receptor (Homo sapiens) for Cc1cc(-n2ccnc2)cc2nc(-c3c(NCc4ccco4)cc[nH]c3=O)[nH]c12 .
Reply: 5.52

Ask: Report pIC50 under test system Insulin-like growth factor 1 receptor (Homo sapiens) for Cc1cc(-n2ccnc2)cc2nc(-c3c(N[C@H](CO)Cc4ccccn4)cc[nH]c3=O)[nH]c12 .
Reply: 5.32

Ask: Report pIC50 under test system Insulin-like growth factor 1 receptor (Homo sapiens) for Cc1cc(-n2ccnc2)cc2[nH]c(-c3c(N[C@H](CO)Cc4ccccc4Cl)cc[nH]c3=O)nc12 .
Reply: 6.07

Ask: Report pIC50 under test system Insulin-like growth factor 1 receptor (Homo sapiens) for Cc1cc(-n2ccnc2)cc2[nH]c(-c3c(N[C@H](CO)Cc4cccc(F)c4)cc[nH]c3=O)nc12 .
Reply: 6.23

Ask: Report pIC50 under test system Insulin-like growth factor 1 receptor (Homo sapiens) for Cc1cc(-n2ccnc2)cc2[nH]c(-c3c(N[C@H](CO)Cc4ccccc4Br)cc[nH]c3=O)nc12 .
Reply: 6.54

Ask: Report pIC50 under test system Insulin-like growth factor 1 receptor (Homo sapiens) for Cc1cc(-n2ccnc2)cc2nc(-c3c(NCc4cccnc4)cc[nH]c3=O)[nH]c12 .
Reply: 4.85

Ask: Report pIC50 under test system Insulin-like growth factor 1 receptor (Homo sapiens) for Cc1cc(-n2ccnc2)cc2[nH]c(-c3c(N[C@H](CO)Cc4ccccc4C#N)cc[nH]c3=O)nc12 .
Reply: 5.66

Ask: Report pIC50 under test system Insulin-like growth factor 1 receptor (Homo sapiens) for COc1ccccc1C[C@@H](CO)Nc1cc[nH]c(=O)c1-c1nc2c(C)cc(-n3ccnc3)cc2[nH]1 .
Reply: 6.24

Ask: Report pIC50 under test system Insulin-like growth factor 1 receptor (Homo sapiens) for COc1cccc(C[C@@H](CO)Nc2cc[nH]c(=O)c2-c2nc3c(C)cc(-n4ccnc4)cc3[nH]2)c1 .
Reply: 6.18

Ask: Report pIC50 under test system Insulin-like growth factor 1 receptor (Homo sapiens) for COc1ccc(C[C@@H](CO)Nc2cc[nH]c(=O)c2-c2nc3c(C)cc(-n4ccnc4)cc3[nH]2)cc1 .
Reply: 5.51

Ask: Report pIC50 under test system Insulin-like growth factor 1 receptor (Homo sapiens) for Cc1cc(-n2ccnc2)cc2nc(-c3c(NCCn4nccn4)cc[nH]c3=O)[nH]c12 .
Reply: 5.60

Ask: Report pIC50 under test system Insulin-like growth factor 1 receptor (Homo sapiens) for Cc1cc(-n2ccnc2)cc2[nH]c(-c3c(N[C@H](CO)Cc4cccc(Br)c4)cc[nH]c3=O)nc12 .
Reply: 6.23

Ask: Report pIC50 under test system Insulin-like growth factor 1 receptor (Homo sapiens) for Cc1cc(-n2ccnc2)cc2[nH]c(-c3c(N[C@H](CO)Cc4ccc(OC(C)(C)C)cc4)cc[nH]c3=O)nc12 .
Reply: 5.77

Ask: Report pIC50 under test system Insulin-like growth factor 1 receptor (Homo sapiens) for Cc1ccccc1C[C@@H](CO)Nc1cc[nH]c(=O)c1-c1nc2c(C)cc(-n3ccnc3)cc2[nH]1 .
Reply: 6.28

Ask: Report pIC50 under test system Insulin-like growth factor 1 receptor (Homo sapiens) for Cc1cc(-n2ccnc2)cc2[nH]c(-c3c(N[C@H](CO)Cc4ccc(Cl)cc4)cc[nH]c3=O)nc12 .
Reply: 5.27

Ask: Report pIC50 under test system Insulin-like growth factor 1 receptor (Homo sapiens) for Cc1cc(-n2ccnc2)cc2[nH]c(-c3c(NCCc4cccs4)cc[nH]c3=O)nc12 .
Reply: 5.68

Ask: Report pIC50 under test system Insulin-like growth factor 1 receptor (Homo sapiens) for CCN(Cc1cc(-n2ccnc2)cc2[nH]c(-c3ccc[nH]c3=O)nc12)c1ncc[nH]1 .
Reply: 4.89

Ask: Report pIC50 under test system Insulin-like growth factor 1 receptor (Homo sapiens) for Cc1cc(-n2ccnc2)cc2[nH]c(-c3c(NCc4cccs4)cc[nH]c3=O)nc12 .
Reply: 5.28

Ask: Report pIC50 under test system Insulin-like growth factor 1 receptor (Homo sapiens) for Cc1cc(-n2ccnc2)cc2[nH]c(-c3c(N[C@H](CO)Cc4ccccc4)cc[nH]c3=O)nc12 .
Reply: 6.28
